Assay system: Adenosine receptor A1 (Rattus norvegicus)
Sequence (P25099 whole entry): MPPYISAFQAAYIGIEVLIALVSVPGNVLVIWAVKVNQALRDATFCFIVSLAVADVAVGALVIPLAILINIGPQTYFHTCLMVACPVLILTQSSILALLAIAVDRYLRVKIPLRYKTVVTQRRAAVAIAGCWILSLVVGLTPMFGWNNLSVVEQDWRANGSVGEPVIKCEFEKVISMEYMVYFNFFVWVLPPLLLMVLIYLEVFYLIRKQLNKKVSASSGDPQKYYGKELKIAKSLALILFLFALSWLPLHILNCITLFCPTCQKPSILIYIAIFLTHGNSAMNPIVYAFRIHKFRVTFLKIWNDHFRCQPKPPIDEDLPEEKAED
The reader will find reported pKi values listed item by item below.
Lab note — pKi values are minus log10 of concentrations in M.

Study these solved cases before continuing.
>  <Molecule>
CCCCn1c(=O)c2c(ncn2C2O[C@H](CO)[C@@H](O)[C@H]2O)n(CCCC)c1=O (some centres not stated)

>  <Measured metric>
pKi

>  <Result value>
5.38

$$$$
>  <Molecule>
CCCCCCn1c(=O)c2c(ncn2C2O[C@H](CO)[C@@H](O)[C@H]2O)n(CCCCCC)c1=O (some centres not stated)

>  <Measured metric>
pKi

>  <Result value>
5.01

$$$$
>  <Molecule>
CCCCn1c(=O)c2c(ncn2C2O[C@H](CO)[C@@H](O)[C@H]2O)n(Cc2ccccc2)c1=O (some centres not stated)

>  <Measured metric>
pKi

>  <Result value>
5.66

$$$$
>  <Molecule>
CCCCn1c(=O)c2c(ncn2C2O[C@H](CO)[C@@H](O)[C@H]2O)n(CCCC)c1=S (some centres not stated)

>  <Measured metric>
pKi

>  <Result value>
5.65

$$$$
>  <Molecule>
CCCCn1c(=O)c2c(ncn2C2O[C@H](C(=O)NCC)[C@@H](O)[C@H]2O)n(CCCC)c1=O (some centres not stated)

>  <Measured metric>
pKi

>  <Result value>
5.21

$$$$
>  <Molecule>
CCCCn1c(=O)c2c(ncn2C2O[C@H](C(=O)N(C)C)[C@@H](O)[C@H]2O)n(CCCC)c1=O (some centres not stated)

>  <Measured metric>
pKi

>  <Result value>
5.04

$$$$

Ask | Any idea what pKi was measured for CCCCCn1c(=O)c2c(ncn2C2O[C@H](CO)[C@@H](O)[C@H]2O)n(CCCCC)c1=O (some centres not stated) ?
Reply | 5.06
